Readings of IC50 for the listed compounds
Test system: NIH/3T3 cells transfected with control vector (MOCK)
PROTOCOL_SUMMARY: NIH/3T3 mock cell proliferation assay (CTG, counter assay)
Assay type: cell-based
SETUP_CONDITIONS: Mus musculus, NIH3T3; 72-hr incubation, CellTiter Glo; counter assay for general toxicity
QUANTITY_MEASURED: IC50 (µM)

> print(dat)
                                   compound                               system.name  quantity.measured  quantity.unit  recorded.measurement
1  CCC(Nc1c(-c2nc3cc(OC)c(OC)cc3[nH]2)c(=O)[nH]c2cn(CC)nc12)c1ncccn1 (single isomer, unassigned)  NIH/3T3 cells transfected with control vector (MOCK)               IC50             µM                   2.3
2  CCOc1ccc2nc(-c3c(N[C@@H](C)c4ncccn4)c4nn(CC)cc4[nH]c3=O)[nH]c2c1  NIH/3T3 cells transfected with control vector (MOCK)               IC50             µM                   1.1
3  CCOc1cc2[nH]c(-c3c(N[C@@H](C)c4ncccn4)c4nn(C)cc4[nH]c3=O)nc2cc1OC  NIH/3T3 cells transfected with control vector (MOCK)               IC50             µM                 0.713
4  CC(C)[C@H](Nc1c(-c2nc3ncc(N(C)C)cc3[nH]2)c(=O)[nH]c2cn(C)nc12)c1ncccn1 (single isomer, unassigned)  NIH/3T3 cells transfected with control vector (MOCK)               IC50             µM                 0.943
5  COc1cnc2nc(-c3c(NC(c4ncccn4)C(C)C)c4nn(C)cc4[nH]c3=O)[nH]c2c1 (single isomer, unassigned)  NIH/3T3 cells transfected with control vector (MOCK)               IC50             µM                  1.74
6  COc1cc(F)c2nc(-c3c(N[C@@H](C)c4ncccn4)c4nn(C)cc4[nH]c3=O)[nH]c2c1  NIH/3T3 cells transfected with control vector (MOCK)               IC50             µM                  2.38

* * *

System: NIH/3T3 cells transfected with control vector (MOCK)
PROTOCOL_SUMMARY: NIH/3T3 mock cell proliferation assay (CTG, counter assay)
Format: cell-based
SETUP_CONDITIONS: Mus musculus, NIH3T3; 72-hr incubation, CellTiter Glo; counter assay for general toxicity
Here the recorded IC50 is given for each entry.
QUANTITY_MEASURED: IC50 (nM)

> print(dat)
                                   compound  quantity.measured  quantity.unit  recorded.measurement
1  CCn1cc2[nH]c(=O)c(-c3nc4ccc(OCCOC)cc4[nH]3)c(N[C@@H](C)c3ncccn3)c2n1               IC50             nM                   689
2  CC[C@H](Nc1c(-c2nc3cnc(N(C)C)cc3[nH]2)c(=O)[nH]c2cn(C)nc12)c1ncccn1               IC50             nM                  1250
3  COCC(Nc1c(-c2nc3ccc(OC)cc3[nH]2)c(=O)[nH]c2cn(C)nc12)c1ncccn1 (single isomer, unassigned)               IC50             nM                  1500
4  CCn1cc2[nH]c(=O)c(-c3nc4c(OC)cc(OC)cc4[nH]3)c(N[C@@H](C)c3ncccn3)c2n1               IC50             nM                  1940
